Quick reference for Percent Effect among some compounds
tested on: Trypanosoma brucei; assay: Trypanosoma brucei 72 hour study; assay type: functional, organism-based; design: scale not given: in the data most compounds retested in dose-response had high values; conditions: 30.3 µM; […]
The whole screen tested about 66,000 compounds, of which about 960 (1.5%) showed an effect of 50% or more. The sample as a whole holds a higher share of strong results than the screen did.

compound | assay-system | Percent Effect (%)
CN(C)c1ncc(C2Nc3ccccc3C3=NCCCN32)cn1.Cl (centres undefined) | Trypanosoma brucei | -6.507
CN(C)c1ncc(C2Nc3cc(Cl)ccc3C3=NCCCN32)cn1.Cl (centres undefined) | Trypanosoma brucei | 62.93
COc1ccc(C2Nc3cc(Cl)ccc3C3=NCCN32)cc1O (centres undefined) | Trypanosoma brucei | 12.75
FC(F)(F)c1ccc(-c2cc(NC3CCNCC3)nc3[nH]ccc23)nc1 | Trypanosoma brucei | -0.8147
